List of minimal effective concentration values.
- Test system: IL-1β
- PROCEDURE_TEXT: Whole bovine blood assay, LPS-induced IL-1β (inhibition / overstimulation)
- Assay type: cell-based
- TEST_PARAMETERS: drug concentration giving overstimulation (OS) of LPS-induced IL-1β, top concentration 250 μM
Entry rule: numbers only, all in µM.

Some molecules with known minimal effective concentration results, for comparison:
CCCNC[C@]1(O)[C@H](C)O[C@@H](O[C@H]2[C@H](C)[C@@H](O[C@@H]3O[C@H](C)C[C@H](N(C)S(=O)(=O)c4ncn(C)c4Cl)[C@H]3Oc3ccc(OC)cc3)[C@](C)(O)C[C@@H](C)CN[C@H](C)[C@@H](O)[C@](C)(O)[C@@H](CC)OC(=O)[C@@H]2C)C[C@@]1(C)OC: 17
CCCNC[C@]1(O)[C@H](C)O[C@@H](O[C@H]2[C@H](C)[C@@H](O[C@@H]3O[C@H](C)C[C@H](N(Cc4ccccc4)S(=O)(=O)c4nccn4C)[C@H]3O)[C@](C)(O)C[C@@H](C)CN[C@H](C)[C@@H](O)[C@](C)(O)[C@@H](CC)OC(=O)[C@@H]2C)C[C@@]1(C)OC: 2
CCCNC[C@]1(O)[C@H](C)O[C@@H](O[C@H]2[C@H](C)[C@@H](O[C@@H]3O[C@H](C)C[C@H](N(C)S(=O)(=O)NC)[C@H]3O)[C@](C)(O)C[C@@H](C)CN[C@H](C)[C@@H](O)[C@](C)(O)[C@@H](CC)OC(=O)[C@@H]2C)C[C@@]1(C)OC: 26

Next:
Task item: If you can, please state the reported minimal effective concentration value of CC[C@H]1OC(=O)[C@H](C)[C@@H](O[C@H]2C[C@@](C)(OC)[C@](O)(CN3CCSCC3)[C@H](C)O2)[C@H](C)[C@@H](O[C@@H]2O[C@H](C)C[C@H](N(C)S(=O)(=O)c3ccc(Cl)cc3)[C@H]2O)[C@](C)(O)C[C@@H](C)CN[C@H](C)[C@@H](O)[C@]1(C)O .
Reply: 16
